Molecular target: PASK (Homo sapiens (Human), UniProt Q96RG2)
Sequence (Q96RG2 999-1251): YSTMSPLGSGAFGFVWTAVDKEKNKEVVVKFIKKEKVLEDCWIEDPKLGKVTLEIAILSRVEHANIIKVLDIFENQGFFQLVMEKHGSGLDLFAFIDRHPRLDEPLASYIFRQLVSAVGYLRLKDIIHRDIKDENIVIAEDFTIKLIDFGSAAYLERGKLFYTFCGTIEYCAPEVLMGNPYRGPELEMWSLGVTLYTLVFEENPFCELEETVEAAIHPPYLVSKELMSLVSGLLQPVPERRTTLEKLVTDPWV
Assay: PAS Kinase FRET Assay
Type: biochemical
Conditions: TR-FRET assay; read-out: IC50 Kinase Domain
pIC50: −log10 of the molar value.
READOUT KIND: pIC50

Study these solved cases before continuing.
O=c1cc(-c2ccc3c(c2)OCCO3)[nH]c2c(-c3ccccn3)c(O)nn12 | ≥ 5.00
Nc1nn2c(=O)cc(-c3ccc4[nH]ncc4c3)[nH]c2c1-c1ccccn1 | ≥ 5.00
COc1ccc(-c2cc(=O)n3ncc(-c4ccccn4)c3[nH]2)c(OC)c1 | ≥ 5.00
Cc1cc2[nH]nnc2cc1-c1cc(=O)n2ncc(-c3ccccn3)c2[nH]1 | ≥ 5.00
CC(C)Oc1c(-c2cc(=O)n3ncc(-c4ccccn4)c3[nH]2)ccc2c1OCO2 | ≥ 5.00
COc1ccc(-c2c(C)nn3c(=O)cc(-c4ccc5ncccc5c4)[nH]c23)cc1 | ≥ 5.00
CCc1nn2c(=O)cc(-c3ccc(Cl)cc3)[nH]c2c1-c1ccccn1 | ≥ 5.00
COc1c(-c2cc(=O)n3nc(C)c(-c4ccccn4)c3[nH]2)ccc2[nH]nnc12 | ≥ 5.00
CC(C)C(=O)Nc1nn2c(=O)cc(-c3ccc4c(c3)OCO4)[nH]c2c1-c1ccccn1 | ≥ 5.00
Cc1nn2c(=O)cc(-c3ccc4c(c3OC(C)C)OCO4)[nH]c2c1-c1ccccn1 | ≥ 5.00

Give measured pIC50 for every item shown.
1. O=C(c1cnn2c(=O)cc(-c3ccc4c(c3)OCCO4)[nH]c12)N1CCOCC1
2. O=c1cc(-c2ccc3c(c2)OCCO3)[nH]c2c(-c3ccc(N4CCOCC4)nc3)cnn12
3. O=c1cc(-c2ccc3c(c2)OCCO3)[nH]c2c(-c3cccc(Cl)c3)cnn12
4. Nc1nn2c(=O)cc(-c3ccc(Cl)cc3)[nH]c2c1-c1ccccc1
5. Cc1coc2ccc(-c3cc(=O)n4ncc(-c5ccccn5)c4[nH]3)cc12
6. O=c1cc(-c2ccc(F)cc2F)[nH]c2c(-c3ccccn3)cnn12
7. Nc1nn2c(=O)cc(-c3ccc4[nH]ncc4c3)[nH]c2c1-c1ccc(Cl)cc1
8. NC(=O)c1cnn2c(=O)cc(-c3ccc4c(c3)OCCO4)[nH]c12

Reply:
["≥ 5.00", "≥ 5.00", "≥ 5.00", "≥ 5.00", "≥ 5.00", "≥ 5.00", "≥ 5.00", "≥ 5.00"]

Need pIC50 for each of these compounds.
1. Nc1nn2c(=O)cc(-c3ccc(C(F)(F)F)cc3)[nH]c2c1-c1ccccn1
2. O=C(O)c1cnn2c(=O)cc(-c3ccc4c(c3)OCCO4)[nH]c12

Reply:
1: ≥ 5.00; 2: ≥ 5.00

====

For CK2a2 (Homo sapiens (Human), UniProt P19784), measured pIC50 is reported for the entries below.
pIC50: −log10 of the molar value.

// solved cases for pIC50 follow
O=c1cc(-c2ccc3c(c2)CCO3)[nH]c2c(-c3cccnc3)c(O)nn12 | ≥ 5.00
Nc1nn2c(=O)cc(-c3ccc4c(c3)OCO4)[nH]c2c1-c1ccccn1 | ≥ 5.00
CCNc1nn2c(=O)cc(-c3ccc4c(c3)OCO4)[nH]c2c1-c1ccccn1 | ≥ 5.00
O=c1cc(-c2ccc(Cl)cc2)[nH]c2c(-c3ccccn3)cnn12 | ≥ 5.00
O=c1cc(-c2ccc3c(c2)OCO3)[nH]c2c(-c3cccnc3)c(O)nn12 | ≥ 5.00
COc1c(-c2cc(=O)n3nc(N)c(-c4ccccn4)c3[nH]2)ccc2c1OCO2 | ≥ 5.00
Nc1nn2c(=O)cc(-c3ccc(Cl)cc3F)[nH]c2c1-c1ccccn1 | ≥ 5.00
O=c1cc(-c2ccc(Cl)c(Cl)c2)[nH]c2c(-c3ccccn3)cnn12 | ≥ 5.00
Nc1nn2c(=O)cc(-c3ccc(Cl)cc3)[nH]c2c1-c1ccccn1 | ≥ 5.00
CCCNC(=O)c1cnn2c(=O)cc(-c3ccc4c(c3)OCCO4)[nH]c12 | ≥ 5.00

// for each compound in input: emit pIC50
1. N#Cc1ccc(-c2cc(=O)n3ncc(-c4ccccn4)c3[nH]2)cc1
2. COc1c(-c2cc(=O)n3nc(O)c(-c4ccccn4)c3[nH]2)ccc2c1OCO2

Reply:
1. ≤ 5.00
2. ≥ 5.00
